So I've got a bunch of compounds here, and I need their inhibition values.
target-or-system: Serine/threonine-protein kinase PLK1 (Homo sapiens);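 note: reported value is a mean PLK1 inhibition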
condition-parameters: at 1 µM
# number only, unit % dropped from output

What value of inhibition has been recorded for this entry: CCS(=O)(=O)c1ccc(OC)c(Nc2ncc(-c3ccccc3Cl)o2)c1
3.51

What value of inhibition has been recorded for this entry: O=C(Nc1n[nH]c2cc(-c3ccccc3)ccc12)C1CC1
2.83

What value of inhibition has been recorded for this entry: COc1cccc(-n2cnc3c(N/N=C/c4ccncc4)ncnc32)c1
-0.54

What value of inhibition has been recorded for this entry: Fc1ccc(-c2ncn(C3CCNCC3)c2-c2ccnc(Oc3ccc4c(c3)OCO4)n2)cc1
3.7

What value of inhibition has been recorded for this entry: Cc1ccc(C(=O)NC(C)C)cc1-c1ccc(C(=O)NCC2CC2)cc1
0.01

What value of inhibition has been recorded for this entry: NC(=O)c1cc(-c2ccncc2)cc(-c2ccccc2)c1N
5.13

What value of inhibition has been recorded for this entry: Cc1ccc(NC(=O)c2ccoc2)cc1-c1ccc(C(=O)NCC2CC2)cc1
-0.9

What value of inhibition has been recorded for this entry: NC(=O)c1ccc(Oc2nccc(-c3c(-c4ccc(F)cc4)ncn3C3CCNCC3)n2)cc1
9.34

What value of inhibition has been recorded for this entry: NS(=O)(=O)c1ccc(N/N=C2\C(=O)Nc3ccc(C(=O)NCCCn4ccnc4)cc32)cc1
4.25

What value of inhibition has been recorded for this entry: NC(=O)c1cc(-c2ccc(F)cc2)cc(-c2ccncc2)c1N
2.93

What value of inhibition has been recorded for this entry: NS(=O)(=O)c1ccc(Nc2cc(-c3ccc(O)c(F)c3)n[nH]2)cc1
-3.09

What value of inhibition has been recorded for this entry: O=C1Nc2ccccc2/C1=C/Nc1ccc(-n2cncn2)cc1
2.82

What value of inhibition has been recorded for this entry: Fc1ccc(-c2ncn(CCCN3CCOCC3)c2-c2ccncc2)cc1
-0.73

What value of inhibition has been recorded for this entry: c1ccc(Oc2ccc(Nc3ncc(-c4ccccc4)o3)cc2)cc1
1.6

What value of inhibition has been recorded for this entry: NS(=O)(=O)c1ccc(N/N=C2\C(=O)Nc3ccc(-c4cnco4)cc32)cc1
3.38

What value of inhibition has been recorded for this entry: O=C1NC(=O)C(c2cccc(Cl)c2)=C1Nc1ccc(Cl)c(C(=O)O)c1
2.75

What value of inhibition has been recorded for this entry: Fc1ccc(-c2ncn(C3CCNCC3)c2-c2ccnc(Oc3ccc(Oc4ccccc4)cc3)n2)cc1
6.8

What value of inhibition has been recorded for this entry: O=C1Nc2ccc(I)cc2C1=Cc1cc(Br)c(O)c(Br)c1
9.77

What value of inhibition has been recorded for this entry: CN(C)CCCNc1nccc(-c2c(-c3ccc(F)cc3)nn3cc(C(F)(F)F)ccc23)n1
2.23

What value of inhibition has been recorded for this entry: CN(C)c1ccc2c(c1)/C(=C/Nc1ccc(S(N)(=O)=O)cc1)C(=O)N2
2.41

What value of inhibition has been recorded for this entry: O=C(NCC1CC1)c1ccc(-c2cccc(C(=O)NC3CC3)c2)cc1
-0.14

====

target-or-system: Phosphorylase b kinase gamma catalytic chain, liver/testis isoform (Homo sapiens);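 note: values are mean inhibition of PHKG2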
condition-parameters: at 0.1 µM
reported-property: inhibition (%)
# number only, unit % dropped from output

What value of inhibition has been recorded for this entry: Fc1ccc(-c2c(-c3ccncc3)nc3n2CCS3)cc1
1.99

What value of inhibition has been recorded for this entry: O=C1Nc2ccccc2/C1=C/Nc1ccc(-n2cncn2)cc1
5.95

What value of inhibition has been recorded for this entry: COc1cc2ncn(-c3cc(OCCc4ccccc4)c(C(N)=O)s3)c2cc1OC
1.37

What value of inhibition has been recorded for this entry: NC(=O)c1cc(-c2ccncc2)cc(-c2ccccc2)c1N
5.49

What value of inhibition has been recorded for this entry: COc1cc(Nc2ncc3c(C)nc(-c4cccc(C(F)(F)F)c4)n3n2)cc(OC)c1OC
4.94

What value of inhibition has been recorded for this entry: CS(=O)(=O)CCNCc1ccc(-c2ccc3ncnc(Nc4ccc(OCc5ccccc5)c(Br)c4)c3c2)o1
5.03

What value of inhibition has been recorded for this entry: COc1ccc2ncn(-c3cc(O[C@H](C)c4ccccc4Cl)c(C(N)=O)s3)c2c1
6

What value of inhibition has been recorded for this entry: Fc1ccc(-c2ncn(C3CCNCC3)c2-c2ccnc(Oc3ccc4c(c3)OCO4)n2)cc1
7.66

What value of inhibition has been recorded for this entry: CS(=O)(=O)CCNCc1cc(-c2cc3c(Nc4ccc(OCc5cccc(F)c5)c(Cl)c4)ncnc3s2)cs1
3.77

What value of inhibition has been recorded for this entry: CCN(CC)Cc1ccc(Nc2nccc(-c3cnn4ncccc34)n2)cc1
5.93

What value of inhibition has been recorded for this entry: FC(F)(F)c1cccc(Nc2nccc(-c3cnn4nc(-c5ccccc5)ccc34)n2)c1
2.99

What value of inhibition has been recorded for this entry: O=C(NCC1CC1)c1ccc(-c2cccc(C(=O)NC3CC3)c2)cc1
2.3

What value of inhibition has been recorded for this entry: C[C@@H](Oc1cc(-n2cnc3ccc(OC4CCN(C)CC4)cc32)sc1C(N)=O)c1ccccc1Cl
5.55

What value of inhibition has been recorded for this entry: COc1cccc(/C=N/Nc2ncnc3c2cnn3-c2cccc(OC)c2)c1
3.6

What value of inhibition has been recorded for this entry: Cc1ccc(C(=O)NC(C)C)cc1-c1ccc(C(=O)NCC2CC2)cc1
-5.49

What value of inhibition has been recorded for this entry: O=C(Nc1n[nH]c2cc(-c3cc(F)ccc3F)ccc12)C1CC1
3.06

What value of inhibition has been recorded for this entry: COc1cc(C)c(N(C)C(=O)CN(C)C)cc1Nc1nc(Nc2cccc(F)c2C(N)=O)c2cc[nH]c2n1
3.64

What value of inhibition has been recorded for this entry: CCS(=O)(=O)c1ccc(OC)c(Nc2ncc(-c3cccc(-c4ccccc4F)c3)o2)c1
0.01

What value of inhibition has been recorded for this entry: O=C1NC(=O)C(c2cccc(Cl)c2)=C1Nc1ccc(Cl)c(C(=O)O)c1
4.58

What value of inhibition has been recorded for this entry: CNC(=O)c1cncc(/C=C/c2c(C)cccc2C)c1
2.11

What value of inhibition has been recorded for this entry: COc1ccc(-c2ccc3c(NC(=O)C4CC4)n[nH]c3n2)cc1
0.93

What value of inhibition has been recorded for this entry: Cc1ccc(C(=O)NC2CCC2)cc1-c1ccc(C(=O)NCC2CC2)cc1
3.61

What value of inhibition has been recorded for this entry: CCc1cccc(CC)c1/C=C/c1cncc(C(=O)NC)c1
3.56

What value of inhibition has been recorded for this entry: Clc1ccc(CNc2nccc(-c3cnn4ncccc34)n2)cc1
2.58

What value of inhibition has been recorded for this entry: Cc1ccc(NC(=O)c2ccoc2)cc1-c1ccc(C(=O)NCC2CC2)cc1
3.37

What value of inhibition has been recorded for this entry: COc1ccc2cc(-c3c(-c4ccncc4)nc(-c4ccc([S+](C)[O-])cc4C)n3C)ccc2c1 (centres undefined)
-1.33

What value of inhibition has been recorded for this entry: COc1cc(N2CCN(C(C)C)CC2)ccc1Nc1nc(Nc2ccc(F)cc2C(=O)NC[C@@H](O)CO)c2cc[nH]c2n1
6.76

What value of inhibition has been recorded for this entry: CCc1nccc2c1nc(-c1nonc1N)n2CC
-0.2

What value of inhibition has been recorded for this entry: O=C1Nc2ccc(I)cc2C1=Cc1cc(Br)c(O)c(Br)c1
4.05
